- Species on record: Homo sapiens
- test_details: To identify inhibition of the IFN signalling (Jak-Stat) pathway via expression of an eGFP reporter gene under the control of an IFN-stimulated response element (ISRE) containing MxA promoter.
- Assay type: functional
- Parameters: scale not given: direction of the effect not stated beside the values
- applied_conditions: 30 µM
metric_name: Percent Effect

// query What value of measured Percent Effect is listed for CC(C)CCN1CCNC(=O)C1CC(=O)N1CCc2sccc2C1 (stereo unspecified) ?
// result -17.6%

// query Fill blank: measured Percent Effect of the compound Cc1ncc(C(=O)N2C[C@H]3CC[C@@H]2CN(S(=O)(=O)N(C)C)C3)c(C)n1 is ____.
// result 1.16%

// query Can you look up the measured Percent Effect of COc1ccc(CN2CCn3cc(CN4CCCCC4)nc3C2)cc1 for me?
// result -6.42%

// query Looking for the measured Percent Effect of Cc1cn(CC(=O)NC2CCN(C(=O)C3CC3)CC2)c2ccccc12 , can you help?
// result 9.22%

// query I would be grateful if you could share the reported Percent Effect for Cc1cc(CN2CCN(C(C)c3nc(C4CC4)no3)CC2)no1 (stereo unspecified) .
// result 28.4%

// query Query (compound): Cc1[nH]ccc1C(=O)Nc1cccc(CN2CCC(CO)CC2)c1 ; field requested: Percent Effect
// result 30.6%

// query Sample CC(C)c1nc(N2CC(N3CCCCC3C)C2)c2cnn(C)c2n1 (stereo unspecified) — what was its Percent Effect?
// result 4.43%

// query Recorded Percent Effect of CCC(=O)N1CC[C@@H](c2ccc3ccccc3c2)[C@H](O)C1 , please.
// result 11.8%

// query Can you share its Percent Effect? I mean this compound: CCN(CCC(F)(F)F)C(=O)Nc1cccc(N2CCOCC2)c1
// result 16.4%

// query Consider the compound O=C(NCCc1cccs1)[C@H]1CO[C@H]2CCNC[C@H]2C1 and give its measured Percent Effect.
// result 12.4%

// query May I ask what Percent Effect has been recorded for O=C(NCCNc1ccc(C(F)(F)F)cn1)c1cncc(Br)c1 ?
// result 27.5%
